# TARGET UNDER TEST: FPR1 (UniProt P21462)
# MEASUREMENT NOTES: fMLP-FPR1 mediated calcium signaling assay in FPR1-overexpressing 293T cells
# EXPERIMENTAL PARAMETERS: inhibition of fMLP-FPR1 mediated intracellular calcium change; hFPR1 or mFPR1 overexpressing 293T cells; 10 min preincubation; INDO-1 AM, FACS
# Experimental: The effects of the compounds of this disclosure on regulating the FPR1-mediated cell signaling were measured by monitoring the cellular calcium level change, as illustrated by the exemplary examples in Table 2. […] Cultured hFPR1 or mFPR1 overexpressing 293T cells were labeled with 1 μM INDO-1 AM calcium sensor dye (eBioscience) for 30 min at 37° C. […] The cytoplasmic calcium levels were then measured by FACS Aria III at 37° C. prior to and after the stimulation of fMLP. […]
I'd appreciate it if you could supply IC50 values for the items below.

Measured IC50 for this entry O=C1c2n[nH]c(-c3cc(F)ccc3O)c2[C@@H](c2ccc(Cl)cc2)N1C1CCOCC1 (single isomer, unassigned) on FPR1 (UniProt P21462): 1 to 10 µM

Assay FPR1 (UniProt P21462), sample O=C1c2n[nH]c(-c3cc(Cl)ccc3O)c2C(c2ccc(C(F)(F)F)cc2)N1C1CCOCC1 (racemic) , IC50 read: 0.1 to 1 µM

Short answer on FPR1 (UniProt P21462) for Cc1ccc(O)c(-c2[nH]nc3c2C(c2ccc(C(F)(F)F)cc2)N(C2CCOCC2)C3=O)c1 (racemic) , IC50: 0.1 to 1 µM

Per the reported FPR1 (UniProt P21462) data, Cc1ccc(O)c(-c2[nH]nc3c2[C@@H](c2ccc(C(F)(F)F)cc2)N(C2CCOCC2)C3=O)c1 (single isomer, unassigned) has IC50 of 1 to 10 µM

Measured on FPR1 (UniProt P21462), Cc1ccc(O)c(-c2[nH]nc3c2[C@H](c2ccc(C(F)(F)F)cc2)N(C2CCOCC2)C3=O)c1 (single isomer, unassigned) has a documented IC50 of 0.1 to 1 µM

Form field IC50 for item CC(=O)N1CCC(N2C(=O)c3n[nH]c(-c4cc(C)ccc4O)c3C2c2ccc(C(F)(F)F)cc2)CC1 (racemic) on FPR1 (UniProt P21462): 0.1 to 1 µM

Simply: CO[C@H]1CC[C@@H](N2C(=O)c3n[nH]c(-c4cc(C)ccc4O)c3C2c2ccc(C(F)(F)F)cc2)CC1 (mixture of isomers) , FPR1 (UniProt P21462), IC50 = 1 to 10 µM

# O=C1c2n[nH]c(-c3cc(F)ccc3O)c2C(c2ccc(C(F)(F)F)cc2)N1C1CCOCC1 (racemic) with FPR1 (UniProt P21462): IC50 is 1 to 10 µM

The molecule Cc1ccc(O)c(-c2[nH]nc3c2C(c2ccc(C(F)(F)F)cc2)N(C2CCNCC2)C3=O)c1 (racemic) on FPR1 (UniProt P21462): IC50 was 1 to 10 µM

Reading of IC50 for O=C1c2n[nH]c(-c3ccccn3)c2C(c2ccc(Cl)cc2)N1C1CCOCC1 (racemic) with FPR1 (UniProt P21462): 1 to 10 µM

# IC50 measured on FPR1 (UniProt P21462) for item COC1CCC(N2C(=O)c3n[nH]c(-c4cc(C)ccc4O)c3C2c2ccc(C(F)(F)F)cc2)CC1 (racemic) = 1 to 10 µM

Observed IC50 on FPR1 (UniProt P21462), entry O=C1c2n[nH]c(-c3cc(F)ccc3O)c2C(c2ccc(Cl)cc2)N1C1CCOCC1 (racemic) , equals 1 to 10 µM

For O=C1c2n[nH]c(-c3cc(F)ccc3O)c2[C@H](c2ccc(Cl)cc2)N1C1CCOCC1 (single isomer, unassigned) on FPR1 (UniProt P21462), measured IC50 was 1 to 10 µM
